# pKi listing for each entry below
# study-target: Alpha-1B adrenergic receptor (Homo sapiens, UniProt P35368)
# measurement-protocol: Displacement of [125I]HEAT from human recombinant adrenergic Alpha-1B receptor
Friendly reminder that pKi comes from taking -log10 of the concentration in mol/L.

| compound | pKi |
| --- | --- |
| CC(C)Oc1ccccc1N1CCN(C2CCC(NC(=O)NCc3cccc(F)c3)CC2)CC1 (stereo in doubt; cis) | 6.15 |

Q. Give reported pKi value for CC(C)Oc1ccccc1N1CCN(C2CCC(NC(=O)Nc3ccccc3Cl)CC2)CC1 (cis isomer)
A. 6.43

Q. Give reported pKi value for COc1ccccc1NC(=O)NC1CCC(N2CCN(c3ccccc3OC(C)C)CC2)CC1 (stereo in doubt; trans)
A. 6.97

Q. Give reported pKi value for CC(C)Oc1ccccc1N1CCN(C2CCC(NC(=O)Nc3ccc(F)c(F)c3)CC2)CC1 (cis isomer)
A. 6.02

Q. Give reported pKi value for CC(C)Oc1ccccc1N1CCN(C2CCC(NC(=O)Nc3c(Cl)cc(Cl)cc3Cl)CC2)CC1 (stereo in doubt)
A. 6.32

Q. Give reported pKi value for COc1ccccc1NC(=O)NC1CCC(N2CCN(c3ccccc3OC(C)C)CC2)CC1 (stereo in doubt; cis)
A. 6.65

Q. Give reported pKi value for CC(C)Oc1ccccc1N1CCN(C2CCC(NC(=O)NCc3cccc(F)c3)CC2)CC1 (stereo in doubt; trans)
A. 7.16

Q. Give reported pKi value for CC(C)Oc1ccccc1N1CCN(C2CCC(NC(=O)Nc3c(F)cccc3F)CC2)CC1 (stereo in doubt; trans)
A. 7.44

---

# study-target: Alpha-1B adrenergic receptor (Homo sapiens, UniProt P35368)
# measurement-protocol: Displacement of [125I]HEAT from human recombinant adrenergic Alpha-1B receptor
assay-metric: Ki (nM)
Please reply with the bare figure in nM and do not write the unit itself.

| compound | Ki, nM |
| --- | --- |
| CC(C)Oc1ccccc1N1CCN(C2CCC(NC(=O)Nc3c(Cl)cc(Cl)cc3Cl)CC2)CC1 (trans isomer) | 112 |

Q. Give reported Ki value for CC(C)Oc1ccccc1N1CCN(C2CCC(NC(=O)Nc3ccc(F)c(F)c3)CC2)CC1 (stereo in doubt)
A. 60

Q. Give reported Ki value for CC(C)Oc1ccccc1N1CCN(C2CCC(NC(=O)Nc3cc(F)ccc3F)CC2)CC1 (stereo in doubt)
A. 36.4

Q. Give reported Ki value for CC(C)Oc1ccccc1N1CCN(C2CCC(NC(=O)Nc3ccc(F)cc3F)CC2)CC1 (cis isomer)
A. 475

---

# study-target: Alpha-1B adrenergic receptor (Homo sapiens, UniProt P35368)
# Sequence (P35368 whole entry): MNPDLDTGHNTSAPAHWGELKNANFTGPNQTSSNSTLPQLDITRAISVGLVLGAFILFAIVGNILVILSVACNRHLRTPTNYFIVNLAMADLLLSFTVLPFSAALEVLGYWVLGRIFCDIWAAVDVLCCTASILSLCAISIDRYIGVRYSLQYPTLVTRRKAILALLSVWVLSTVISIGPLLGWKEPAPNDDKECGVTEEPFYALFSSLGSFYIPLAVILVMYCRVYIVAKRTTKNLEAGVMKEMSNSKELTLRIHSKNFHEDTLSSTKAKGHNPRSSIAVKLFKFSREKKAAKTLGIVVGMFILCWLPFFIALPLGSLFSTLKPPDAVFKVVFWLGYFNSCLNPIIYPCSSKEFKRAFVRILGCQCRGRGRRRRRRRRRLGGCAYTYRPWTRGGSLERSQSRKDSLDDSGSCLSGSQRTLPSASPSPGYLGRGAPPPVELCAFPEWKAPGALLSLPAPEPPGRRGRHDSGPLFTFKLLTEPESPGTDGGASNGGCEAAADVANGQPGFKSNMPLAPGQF
# measurement-protocol: Displacement of [125I]HEAT from human recombinant adrenergic Alpha-1B receptor
# Ki listing for each entry below
Please reply with the bare figure in nM and do not write the unit itself.

| compound | Ki / nM |
| --- | --- |
| CC(C)Oc1ccccc1N1CCN(C2CCC(NC(=O)Nc3ccccc3Cl)CC2)CC1 (stereo in doubt) | 39 |
| CC(C)Oc1ccccc1N1CCN(C2CCC(NC(=O)Nc3ccc(F)cc3F)CC2)CC1 (trans isomer) | 76 |

Q. Give reported Ki value for CC(C)Oc1ccccc1N1CCN(C2CCC(NC(=O)Nc3cc(F)ccc3F)CC2)CC1 (cis isomer)
A. 259

Q. Give reported Ki value for CC(C)Oc1ccccc1N1CCN(C2CCC(NC(=O)Nc3c(F)cccc3F)CC2)CC1 (stereo in doubt; cis)
A. 299

---

# study-target: D(2) dopamine receptor (Homo sapiens)
# Sequence (P14416 whole entry): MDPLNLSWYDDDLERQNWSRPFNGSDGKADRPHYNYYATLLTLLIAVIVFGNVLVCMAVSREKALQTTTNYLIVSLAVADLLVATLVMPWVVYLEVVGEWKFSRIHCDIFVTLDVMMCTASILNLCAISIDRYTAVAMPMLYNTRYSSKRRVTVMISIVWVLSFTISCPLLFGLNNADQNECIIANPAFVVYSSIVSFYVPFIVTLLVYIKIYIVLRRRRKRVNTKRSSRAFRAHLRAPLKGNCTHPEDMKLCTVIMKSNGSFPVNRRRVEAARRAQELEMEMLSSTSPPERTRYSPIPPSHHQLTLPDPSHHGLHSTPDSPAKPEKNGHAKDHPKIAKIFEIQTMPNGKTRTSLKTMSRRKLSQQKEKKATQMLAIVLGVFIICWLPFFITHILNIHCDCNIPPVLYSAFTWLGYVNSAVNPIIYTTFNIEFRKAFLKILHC
# measurement-protocol: Displacement of [125I]spiperone from human recombinant dopamine D2 receptor
# Ki listing for each entry below
Please reply with the bare figure in nM and do not write the unit itself.

Some entries whose results are on file:
| molecule | study-target | scale-unit | Ki |
| --- | --- | --- | --- |
| COc1ccc(Cl)cc1NC(=O)NC1CCC(N2CCN(c3ccccc3OC(C)C)CC2)CC1 (trans isomer) | D(2) dopamine receptor (Homo sapiens) | nM | 1.2 |
| CC(C)Oc1ccccc1N1CCN(C2CCC(NC(=O)Nc3ccc(F)c(F)c3)CC2)CC1 (stereo in doubt) | D(2) dopamine receptor (Homo sapiens) | nM | 54 |

Q. Give reported Ki value for CC(C)Oc1ccccc1N1CCN(C2CCC(NC(=O)Nc3c(Cl)cc(Cl)cc3Cl)CC2)CC1 (stereo in doubt)
A. 103

Q. Give reported Ki value for CC(C)Oc1ccccc1N1CCN(C2CCC(NC(=O)Nc3c(F)cccc3F)CC2)CC1 (stereo in doubt; trans)
A. 2.4

Q. Give reported Ki value for CC(C)Oc1ccccc1N1CCN(C2CCC(NC(=O)Nc3c(Cl)cccc3Cl)CC2)CC1 (stereo in doubt; trans)
A. 4.7

Q. Give reported Ki value for CC(C)Oc1ccccc1N1CCN(C2CCC(NC(=O)Nc3c(Cl)cc(Cl)cc3Cl)CC2)CC1 (trans isomer)
A. 6.5

Q. Give reported Ki value for CC(C)Oc1ccccc1N1CCN(C2CCC(NC(=O)Nc3cccc(Cl)c3)CC2)CC1 (stereo in doubt; cis)
A. 108

Q. Give reported Ki value for CC(C)Oc1ccccc1N1CCN(C2CCC(NC(=O)Nc3cccc(Cl)c3)CC2)CC1 (stereo in doubt; trans)
A. 84

Q. Give reported Ki value for CC(C)Oc1ccccc1N1CCN(C2CCC(NC(=O)Nc3ccc(F)c(F)c3)CC2)CC1 (cis isomer)
A. 127

Q. Give reported Ki value for COc1ccc(Cl)cc1NC(=O)NC1CCC(N2CCN(c3ccccc3OC(C)C)CC2)CC1 (cis isomer)
A. 99

Q. Give reported Ki value for CC(C)Oc1ccccc1N1CCN(C2CCC(NC(=O)Nc3ccc(F)cc3F)CC2)CC1 (trans isomer)
A. 0.69
